- ASSAYED_TARGET: Nonstructural protein 3 (Zika virus)
- Sequence (A0A024AXB9 whole entry): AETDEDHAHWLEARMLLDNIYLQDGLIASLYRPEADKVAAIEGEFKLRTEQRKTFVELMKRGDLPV
- EXPERIMENT_SUMMARY: Functional biochemical assay to identify treatments for viral infectious disease that targets Zika NS2B-NS3 protease. Utilizing a direct enzyme activity measurement method, reading the fluorescence intensity is used to characterize the relative potency of inhibitors as IC50.
- Set-up: species or system PRVABC59
pIC50: −log10 of the molar value.
The reader will find reported pIC50 values listed item by item below.

Here are 5 compounds together with their reported answers.
1. c1csc(CSc2nnc(Cn3cncn3)o2)c1: < 4.00
2. N[C@@H](CCO)c1cccc(NC(=O)c2cc(Cl)cc(NC(=O)OCc3ccccc3)c2)c1: 4.40
3. CCn1c(=O)c(N2C[C@H]3C[C@H]2C(F)(F)C3)nc2ccccc21: < 4.00
4. O=C1Cc2c(cccc2C(=O)Nc2cnc(OC3CCC3)nc2)N1: < 4.60
5. COc1cc(C(=O)Nc2ccc3c(c2)CNC3)cc2cnn(C)c12: < 4.60

Now take the following compound into account.
Prompt: Identify the reported pIC50 for the following entry. "O=C(Nc1ccc2c(c1)CNC2)N1C[C@H](C(F)F)C2(CC2)C1"
Response: 4.61
